Attribution: patent US7399638B2

Tested on: Crj: CD(SD)IGS rats
test name: Urinary PAG/hippuric acid ratio by 1H NMR in rats
recorded conditions: rat urine, 300 mg/kg/day by gavage, 3 days, mean n = 3-4
Marks after values point to notes of the source that are not given here.
Quick reference for PAG + hippuric acid/creatinine among some molecules
value type: PAG + hippuric acid/creatinine

1) CNCCC(Oc1ccc(C(F)(F)F)cc1)c1ccccc1 (stereo not drawn) [Fluoxetine, fluoxetine] :: 0.67*
2) CN(C)CCCN1c2ccccc2CCc2ccccc21 [Imipramine, imipramine] :: 0.71*
3) CN(C)CCCN1c2ccccc2CCc2ccc(Cl)cc21 [Clomipramine, clomipramine] :: 0.74*

----------
Test system: Crj: CD(SD)IGS rats
test name: Urinary PAG/hippuric acid ratio by 1H NMR in rats
recorded conditions: rat urine, 100 mg/kg/day by gavage, 3 days, mean n = 3-4
Quick reference for PAG/creatinine (first term of PAG + hippuric acid) among some compounds
value type: PAG/creatinine (first term of PAG + hippuric acid)

1) CN(C)CCCN1c2ccccc2CCc2ccccc21 [Imipramine, imipramine] :: 0.34
2) CC/C(=C(\c1ccccc1)c1ccc(OCCN(C)C)cc1)c1ccccc1 [Tamoxifen, tamoxifen] :: 0.31
3) CN(C)CCCN1c2ccccc2Sc2ccc(Cl)cc21 [Chlorpromazine, chlorpromazine] :: 0.18
